- measurement.target: T1, full-length hANGPTL4 (amino acid residues 26-406 of SEQ ID NO:476) with a C-terminal hexa-histidine tag (human, UniProt Q9BY76 26-406)
- T1 sequence: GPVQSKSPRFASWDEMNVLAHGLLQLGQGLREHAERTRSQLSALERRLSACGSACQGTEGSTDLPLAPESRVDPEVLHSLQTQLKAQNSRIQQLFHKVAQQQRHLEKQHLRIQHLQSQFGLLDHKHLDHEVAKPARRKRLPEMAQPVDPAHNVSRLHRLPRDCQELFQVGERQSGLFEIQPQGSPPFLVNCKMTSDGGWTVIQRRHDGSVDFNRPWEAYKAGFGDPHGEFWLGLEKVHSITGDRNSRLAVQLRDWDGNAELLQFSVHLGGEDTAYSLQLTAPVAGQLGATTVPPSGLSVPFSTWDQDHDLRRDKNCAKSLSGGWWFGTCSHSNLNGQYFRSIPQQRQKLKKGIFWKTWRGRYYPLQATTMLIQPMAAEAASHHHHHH
- method.summary: cell-based or functional assay
result.type: IC50 (nM) in the LPL inhibition assay, constant ANGPTL4 10 nM
Quick note: give the figure in nM, leave out the unit.

State the recorded IC50 (nM) in the LPL inhibition assay, constant ANGPTL4 10 nM for this entry: H4H284P (antibody, human IgG4 S228P, V domains shown, IgG4 version of H1H284P (constant region replaced)) VH: QVQLVESGGGVVQPGRSLRLSCAASGFTFSSYGMHWVRQAPGKGLEWMAVISFDGGNKNNADSVKGRFTISRDNSKNTLYLQMNSLRAEDTAVYYCAKEGDRSGHPYFYYYGLDVWGQGTTVTVSA VL: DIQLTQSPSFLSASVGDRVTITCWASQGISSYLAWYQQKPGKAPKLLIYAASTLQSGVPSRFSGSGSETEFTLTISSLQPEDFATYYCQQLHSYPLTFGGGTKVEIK
1.19
